biological target: HDAC2 (Homo sapiens, UniProt Q92769); construct: purchased Reaction Biology Corporation (assay run by the CRO); assay: HDAC2 inhibition, full IC50 measurement (Reaction Biology; fluorogenic p53 peptide RHKK(Ac)AMC); assay type: biochemical; conditions: Conc. 4.57E-09 M, t2
Sequence (Q92769 whole entry): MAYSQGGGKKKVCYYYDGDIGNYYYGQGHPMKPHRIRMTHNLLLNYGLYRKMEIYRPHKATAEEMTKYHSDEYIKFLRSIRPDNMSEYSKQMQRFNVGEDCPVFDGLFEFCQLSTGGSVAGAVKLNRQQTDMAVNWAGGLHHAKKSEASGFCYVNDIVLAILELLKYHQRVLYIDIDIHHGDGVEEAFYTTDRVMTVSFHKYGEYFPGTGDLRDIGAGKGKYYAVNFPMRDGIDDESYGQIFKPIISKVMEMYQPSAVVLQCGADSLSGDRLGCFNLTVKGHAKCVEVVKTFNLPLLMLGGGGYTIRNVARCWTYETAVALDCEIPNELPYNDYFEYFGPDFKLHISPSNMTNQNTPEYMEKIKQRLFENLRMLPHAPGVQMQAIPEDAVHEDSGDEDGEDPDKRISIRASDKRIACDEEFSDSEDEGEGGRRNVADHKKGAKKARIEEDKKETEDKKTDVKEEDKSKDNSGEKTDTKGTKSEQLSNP
Peptide text beside a SMILES is read from it.
readoutLabel: HDAC2 activity raw data (signal)

molecule | HDAC2 activity raw data (signal)
CC(C)C[C@H]1NC(=O)[C@H](Cc2c[nH]c3ccccc23)NC(=O)[C@H](CCCCCS)NC(=O)[C@@H](Cc2ccc(O)cc2)NC(=O)[C@@H](C(C)C)NC(=O)[C@H](Cc2c[nH]cn2)NC(=O)CNC(=O)CNC(=O)[C@@H](CO)NC1=O [des2.2.0, SHA-Trp-dLeu-dSer-Gly-Gly-His-dVal-dTyr] (HELM PEPTIDE1{G.G.H.[dV].[dY].[O=C([C@H](CCCCCS)N[*:1])[*:2]].W.[dL].[dS]}$PEPTIDE1,PEPTIDE1,1:R1-9:R2$$$V2.0) | 728514

Sure, the documented HDAC2 activity raw data (signal) for N=C(N)NCCC[C@H]1NC(=O)[C@@H]2CCCN2C(=O)[C@H](CO)NC(=O)[C@@H](Cc2c[nH]cn2)NC(=O)[C@H](CCCCCS)NC(=O)[C@H](CCCCN)NC(=O)[C@H](Cc2ccc(O)cc2)NC(=O)[C@H]2CCCN2C(=O)[C@@H](CCC(N)=O)NC1=O [des3.1.0, SHA-dHis-Ser-Pro-dArg-dGln-dPro-Tyr-Lys] (HELM PEPTIDE1{K.[O=C([C@H](CCCCCS)N[*:1])[*:2]].[dH].S.P.[dR].[dQ].[dP].Y}$PEPTIDE1,PEPTIDE1,1:R1-9:R2$$$V2.0) is 737052

###

target: HDAC3 (Homo sapiens, UniProt O15379); construct: purchased Reaction Biology Corporation (assay run by the CRO); experiment: HDAC3 inhibition, full IC50 measurement (Reaction Biology; fluorogenic p53 peptide RHKK(Ac)AMC); assay type: biochemical; settings: Conc. 4.12E-08 M, t1
Sequence (O15379 whole entry): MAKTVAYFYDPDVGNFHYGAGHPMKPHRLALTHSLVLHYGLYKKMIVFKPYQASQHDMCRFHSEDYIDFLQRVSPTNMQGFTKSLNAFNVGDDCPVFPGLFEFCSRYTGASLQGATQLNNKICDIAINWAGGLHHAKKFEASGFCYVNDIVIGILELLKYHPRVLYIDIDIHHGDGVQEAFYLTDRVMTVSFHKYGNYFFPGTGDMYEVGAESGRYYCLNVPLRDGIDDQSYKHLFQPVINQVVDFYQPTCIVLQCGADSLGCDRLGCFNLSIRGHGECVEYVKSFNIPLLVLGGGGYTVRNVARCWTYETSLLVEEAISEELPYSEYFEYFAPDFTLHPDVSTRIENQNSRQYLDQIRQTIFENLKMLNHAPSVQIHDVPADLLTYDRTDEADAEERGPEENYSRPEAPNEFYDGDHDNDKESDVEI
Sequence (Q9Y618 395-489 partner limits assumed): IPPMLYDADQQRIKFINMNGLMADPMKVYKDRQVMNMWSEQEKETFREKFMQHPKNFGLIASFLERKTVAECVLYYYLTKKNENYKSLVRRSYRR
Peptide text beside a SMILES is read from it.
readoutLabel: HDAC3 activity raw data (signal)
Give a plain numeric answer without units written out.

Example compounds with recorded HDAC3 activity raw data (signal):
compound | experimentalResult
CCCC[C@H]1NC(=O)[C@H](Cc2ccccc2)NC(=O)[C@H](CCCCCS)NC(=O)[C@@H](CCCNC(=N)N)NC(=O)[C@H](CC(=O)O)NC(=O)[C@@H](CO)NC(=O)[C@@H](C)NC(=O)[C@H](CCCCN)NC1=O [des4.3.1, SHA-Phe-dNle-Lys-dAla-dSer-Asp-dArg] (HELM PEPTIDE1{D.[dR].[O=C([C@H](CCCCCS)N[*:1])[*:2]].F.[CCCC[C@@H](N[*:1])C(=O)[*:2]].K.[dA].[dS]}$PEPTIDE1,PEPTIDE1,1:R1-8:R2$$$V2.0) | 1318255
NCCCC[C@H]1NC(=O)[C@H](CCC(N)=O)NC(=O)[C@H](CCC(=O)O)NC(=O)[C@@H]2CCCN2C(=O)[C@H](CC(N)=O)NC(=O)[C@H](CCCCCS)NC(=O)CNC(=O)[C@H](Cc2c[nH]c3ccccc23)NC1=O [des1.1.1, SHA-Asn-Pro-Glu-Gln-dLys-Trp-Gly] (HELM PEPTIDE1{E.Q.[dK].W.G.[O=C([C@H](CCCCCS)N[*:1])[*:2]].N.P}$PEPTIDE1,PEPTIDE1,1:R1-8:R2$$$V2.0) | 758574

Consider the record given below.
HDAC3 activity raw data (signal) value, target or system HDAC3 (Homo sapiens, UniProt O15379), for CC(C)C[C@H]1NC(=O)[C@H](Cc2c[nH]c3ccccc23)NC(=O)[C@H](CCCCCS)NC(=O)[C@@H](Cc2ccc(O)cc2)NC(=O)[C@@H](C(C)C)NC(=O)[C@H](Cc2c[nH]cn2)NC(=O)CNC(=O)CNC(=O)[C@@H](CO)NC1=O [des2.2.0, SHA-Trp-dLeu-dSer-Gly-Gly-His-dVal-dTyr] (HELM PEPTIDE1{G.G.H.[dV].[dY].[O=C([C@H](CCCCCS)N[*:1])[*:2]].W.[dL].[dS]}$PEPTIDE1,PEPTIDE1,1:R1-9:R2$$$V2.0) : 1033280

###

# Lookup of reported HDAC2 activity raw data (signal) keyed by entry
molecular target: HDAC2 (Homo sapiens); construct: purchased Reaction Biology Corporation (assay run by the CRO); assay: HDAC2 inhibition, full IC50 measurement (Reaction Biology; fluorogenic p53 peptide RHKK(Ac)AMC); assay type: biochemical; settings: Conc. 1.52E-09 M, t1
Peptide text beside a SMILES is read from it.
Give a plain numeric answer without units written out.

molecule | HDAC2 activity raw data (signal)
CCCC[C@H]1NC(=O)[C@H](Cc2ccccc2)NC(=O)[C@H](CCCCCS)NC(=O)[C@@H](CO)NC(=O)[C@H](CC(=O)O)NC(=O)[C@@H](CO)NC(=O)[C@@H](C)NC(=O)[C@H](CCCCN)NC1=O [des4.3.1.1, SHA-Phe-dNle-Lys-dAla-dSer-Asp-dSer] (HELM PEPTIDE1{D.[dS].[O=C([C@H](CCCCCS)N[*:1])[*:2]].F.[CCCC[C@@H](N[*:1])C(=O)[*:2]].K.[dA].[dS]}$PEPTIDE1,PEPTIDE1,1:R1-8:R2$$$V2.0) | 1787655

Consider the record given below.
Sure, the documented HDAC2 activity raw data (signal) for CCCC[C@H]1NC(=O)[C@H](CC(=O)O)NC(=O)[C@@H](CO)NC(=O)[C@@H](C)NC(=O)[C@H](CCCCN)NC(=O)[C@@H](CCCCN)NC(=O)[C@H](Cc2ccccc2)NC(=O)[C@H](CCCCCS)NC1=O [des4.3.1.2, SHA-Phe-dLys-Lys-dAla-dSer-Asp-dNle] (HELM PEPTIDE1{D.[CCCC[C@@H](N[*:1])C(=O)[*:2]].[O=C([C@H](CCCCCS)N[*:1])[*:2]].F.[dK].K.[dA].[dS]}$PEPTIDE1,PEPTIDE1,1:R1-8:R2$$$V2.0) is 1920222

###

target: HDAC6 (Homo sapiens); construct: purchased Reaction Biology Corporation (assay run by the CRO); assay: HDAC6 inhibition, full IC50 measurement (Reaction Biology; fluorogenic p53 peptide RHKK(Ac)AMC); assay type: biochemical; details: Conc. 5.08E-10 M, t1
Sequence (Q9UBN7 whole entry): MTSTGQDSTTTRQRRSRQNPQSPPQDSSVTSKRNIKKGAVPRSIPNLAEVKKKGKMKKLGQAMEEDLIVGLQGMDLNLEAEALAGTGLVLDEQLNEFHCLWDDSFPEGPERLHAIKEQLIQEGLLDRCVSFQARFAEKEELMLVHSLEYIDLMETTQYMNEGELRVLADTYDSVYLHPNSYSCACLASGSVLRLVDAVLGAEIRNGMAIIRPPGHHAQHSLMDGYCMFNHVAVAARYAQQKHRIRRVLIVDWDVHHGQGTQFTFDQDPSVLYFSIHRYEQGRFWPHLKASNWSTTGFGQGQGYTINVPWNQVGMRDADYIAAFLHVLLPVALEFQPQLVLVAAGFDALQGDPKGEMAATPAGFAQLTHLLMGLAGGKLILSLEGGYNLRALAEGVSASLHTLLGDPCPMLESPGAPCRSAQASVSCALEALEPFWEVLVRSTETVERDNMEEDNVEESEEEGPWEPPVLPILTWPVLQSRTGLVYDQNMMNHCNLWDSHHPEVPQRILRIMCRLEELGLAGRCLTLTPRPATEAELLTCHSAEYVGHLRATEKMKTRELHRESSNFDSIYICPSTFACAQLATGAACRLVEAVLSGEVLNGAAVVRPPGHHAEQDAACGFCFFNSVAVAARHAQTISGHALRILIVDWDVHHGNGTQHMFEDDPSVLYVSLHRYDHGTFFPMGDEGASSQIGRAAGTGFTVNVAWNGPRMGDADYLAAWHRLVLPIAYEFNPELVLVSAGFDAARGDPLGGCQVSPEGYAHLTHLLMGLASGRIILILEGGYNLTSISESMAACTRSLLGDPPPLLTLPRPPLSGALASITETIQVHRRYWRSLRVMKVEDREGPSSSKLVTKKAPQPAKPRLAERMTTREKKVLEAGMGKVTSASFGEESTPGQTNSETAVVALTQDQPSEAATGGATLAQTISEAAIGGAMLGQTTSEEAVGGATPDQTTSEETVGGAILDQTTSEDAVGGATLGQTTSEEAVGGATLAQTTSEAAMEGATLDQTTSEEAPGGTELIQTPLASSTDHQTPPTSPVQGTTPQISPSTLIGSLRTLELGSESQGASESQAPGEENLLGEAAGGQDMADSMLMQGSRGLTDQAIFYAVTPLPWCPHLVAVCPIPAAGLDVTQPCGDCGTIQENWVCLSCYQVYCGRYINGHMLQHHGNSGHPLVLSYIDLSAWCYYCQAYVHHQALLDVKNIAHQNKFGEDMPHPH
Peptide text beside a SMILES is read from it.
readoutLabel: HDAC6 activity raw data (signal)
Give a plain numeric answer without units written out.

HDAC6 activity raw data (signal) value, target or system HDAC6 (Homo sapiens), for N=C(N)NCCC[C@H]1NC(=O)[C@@H]2CCCN2C(=O)[C@H](CO)NC(=O)[C@@H](Cc2c[nH]cn2)NC(=O)[C@H](CCCCCS)NC(=O)[C@H](CCCCN)NC(=O)[C@H](Cc2ccc(O)cc2)NC(=O)[C@H]2CCCN2C(=O)[C@@H](CCC(N)=O)NC1=O [des3.1.0, SHA-dHis-Ser-Pro-dArg-dGln-dPro-Tyr-Lys] (HELM PEPTIDE1{K.[O=C([C@H](CCCCCS)N[*:1])[*:2]].[dH].S.P.[dR].[dQ].[dP].Y}$PEPTIDE1,PEPTIDE1,1:R1-9:R2$$$V2.0) : 111941

###

target: HDAC3 (Homo sapiens, UniProt O15379); construct: purchased Reaction Biology Corporation (assay run by the CRO); assay: HDAC3 inhibition, full IC50 measurement (Reaction Biology; fluorogenic p53 peptide RHKK(Ac)AMC); assay type: biochemical; conditions: Conc. 5.08E-10 M, t1
Peptide text beside a SMILES is read from it.
readoutLabel: HDAC3 activity raw data (signal)

Example molecules with recorded HDAC3 activity raw data (signal):
molecule | HDAC3 activity raw data (signal)
CSCC[C@H]1NC(=O)[C@@H](CO)NC(=O)[C@H](CC(N)=O)NC(=O)[C@H](CC(=O)O)NC(=O)[C@@H]([C@H](C)O)NC(=O)[C@H](Cc2c[nH]c3ccccc23)NC(=O)[C@H](CCCCCS)NC(=O)[C@H](CCCCN)NC(=O)[C@@H](CC(=O)O)NC1=O [des2.1.1, SHA-Trp-dThr-Asp-Asn-dSer-dMet-dAsp-Lys] (HELM PEPTIDE1{D.N.[dS].[dM].[dD].K.[O=C([C@H](CCCCCS)N[*:1])[*:2]].W.[dT]}$PEPTIDE1,PEPTIDE1,1:R1-9:R2$$$V2.0) | 1393662
N=C(N)NCCC[C@H]1NC(=O)[C@@H]2CCCN2C(=O)[C@H](CO)NC(=O)[C@@H](Cc2c[nH]cn2)NC(=O)[C@H](CCCCCS)NC(=O)[C@H](CCCCN)NC(=O)[C@H](Cc2ccc(O)cc2)NC(=O)[C@H]2CCCN2C(=O)[C@@H](CCC(N)=O)NC1=O [des3.1.0, SHA-dHis-Ser-Pro-dArg-dGln-dPro-Tyr-Lys] (HELM PEPTIDE1{K.[O=C([C@H](CCCCCS)N[*:1])[*:2]].[dH].S.P.[dR].[dQ].[dP].Y}$PEPTIDE1,PEPTIDE1,1:R1-9:R2$$$V2.0) | 932822

Sure, the documented HDAC3 activity raw data (signal) for NCCCC[C@@H]1NC(=O)[C@@H]2C[C@@H](O)CN2C(=O)[C@H](CC(N)=O)NC(=O)[C@H](CCCCCS)NC(=O)CNC(=O)[C@H](Cc2c[nH]c3ccccc23)NC(=O)[C@@H](CCCCN)NC(=O)[C@H](CCC(N)=O)NC1=O [des1.1.2, SHA-Asn-Hpr-Lys-Gln-dLys-Trp-Gly] (HELM PEPTIDE1{G.[O=C([C@H](CCCCCS)N[*:1])[*:2]].N.[Hyp].K.Q.[dK].W}$PEPTIDE1,PEPTIDE1,1:R1-8:R2$$$V2.0) is 1404307
